Molecular target: T1, IL-2R on human primary T cells (human, UniProt P01589 22-272; P14784 27-551; P31785 23-369)
T1 sequence (looked up) 1: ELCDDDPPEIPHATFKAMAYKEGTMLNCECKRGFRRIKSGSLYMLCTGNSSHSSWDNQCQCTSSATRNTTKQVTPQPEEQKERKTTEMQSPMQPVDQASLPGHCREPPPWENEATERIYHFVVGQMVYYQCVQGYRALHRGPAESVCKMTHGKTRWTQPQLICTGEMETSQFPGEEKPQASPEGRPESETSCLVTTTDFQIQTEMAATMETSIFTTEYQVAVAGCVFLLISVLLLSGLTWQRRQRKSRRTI
T1 sequence (looked up) 2: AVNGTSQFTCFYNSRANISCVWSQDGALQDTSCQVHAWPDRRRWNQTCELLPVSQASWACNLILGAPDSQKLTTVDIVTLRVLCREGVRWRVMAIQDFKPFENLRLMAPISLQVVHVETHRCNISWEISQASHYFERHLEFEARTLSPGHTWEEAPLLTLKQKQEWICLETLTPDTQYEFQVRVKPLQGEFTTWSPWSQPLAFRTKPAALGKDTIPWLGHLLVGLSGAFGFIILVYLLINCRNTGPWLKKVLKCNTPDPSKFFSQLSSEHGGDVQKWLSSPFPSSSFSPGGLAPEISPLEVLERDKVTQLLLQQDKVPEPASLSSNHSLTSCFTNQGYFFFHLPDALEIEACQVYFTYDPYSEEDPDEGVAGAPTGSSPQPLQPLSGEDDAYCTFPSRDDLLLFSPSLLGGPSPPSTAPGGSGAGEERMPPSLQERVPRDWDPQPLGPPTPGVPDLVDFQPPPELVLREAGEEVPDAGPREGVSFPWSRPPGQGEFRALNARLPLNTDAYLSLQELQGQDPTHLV
T1 sequence (looked up) 3: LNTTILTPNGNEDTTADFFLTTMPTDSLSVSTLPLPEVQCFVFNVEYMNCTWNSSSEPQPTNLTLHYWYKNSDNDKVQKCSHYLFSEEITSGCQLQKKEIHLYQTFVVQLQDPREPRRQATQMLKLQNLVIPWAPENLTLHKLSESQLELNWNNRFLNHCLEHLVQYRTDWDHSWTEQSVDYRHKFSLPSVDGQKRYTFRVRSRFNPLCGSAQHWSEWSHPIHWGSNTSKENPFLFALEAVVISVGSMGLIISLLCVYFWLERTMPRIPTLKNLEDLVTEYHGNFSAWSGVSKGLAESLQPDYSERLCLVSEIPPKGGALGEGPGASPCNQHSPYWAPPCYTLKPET
Assay: cell-based or functional assay
recorded.endpoint: Treg EC50 (nM), STAT5 phosphorylation

Below, each entry is followed by its recorded Treg EC50 (nM), STAT5 phosphorylation result.
SEQ ID NO 17 (ligand) APTSSSTKKTQLQLEHLRLDLQMILNGINNYKNPKLTRMLTFKFYMPKKATELKHLQCLEEELKPLEEVLNLAQSKNFHFDPRDVVSNINVFVLELKGSETTFMCEYADETATIVEFLNRWITFSTSIISTLT : 1000
SEQ ID NO 10 (ligand) APTSSSTKKTQLQLEHLLLDLQMILNGISNHKNPRLARMLTFKFYMPEKATELKHLQCLEEELKPLEEALRLAPSKNFHLRPRDLISDVNVIVLELKGSETTFMCEYADETATIVEFLNRWITFSTSIISTLT : 2.55

(P) SEQ ID NO 25 (ligand) APTSSSTKKTQLQLEHLLLDLQMILNGINNHKNPRLTRMLTFKFYMPKKATELKHLQCLEEELKPLEEALRLAPSKNFHLRPRDLISNINVIVLELKGSETTFMCEYADETATIVEFLNRWITFSTSIISTLT
(Q) SEQ ID NO 34 (ligand) APTSSSTKKTQLQLEHLLLDLQMILNGINNHKNPKLTRMLTFKFYMPKKATELKHLQCLEEELKPLEEVLNLAQSKNFHLRPRDLISDINVIVLELKGSETTFMCEYADETATIVEFLNRWITFSQSIISTLT
Query block: Compare the recorded Treg EC50 (nM), STAT5 phosphorylation of P and Q ; state which is larger. To answer, give the label that identifies your chosen option.
Result block: Q
